- Test system: 885512-296-R-J2-PDC complex spheroid growth, % test/control;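 note: spheroids exposed to compounds for seven days; 100% = DMSO vehicle control wells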
- protocol: Anticancer human tumor 885512-296-R-J2-PDC patient-derived breast carcinoma cell line growth inhibition [Asc]
- reported conditions: second compound 1 µM; first compound 0.1 µM; hits give low values
- Description: Multicellular complex tumor spheroid response to apoptosis pathway targeting inhibitors Alrizomadlin, Pelcitoclax, and Dasminapant in combination with a variety of drugs and investigational agents in selected tumor cell lines […] Compounds. […] If the clinical Cmax for an agent had not been determined, the highest concentration tested was 10 microM. […]
Reported viability, T/C values follow for various compounds
Write down the numeric answer in % and omit the unit.

Illustrative cases are given below, each with its answer.
compound	viability, T/C, %
COc1c(OCCCN2CCOCC2)ccc2c3n(c(=NC(=O)c4cnc(N)nc4)nc12)CCN3 + Cc1c(S(C)(=O)=O)c(-c2cc(F)cc(N3CCN(c4ccc(NS(=O)(=O)c5ccc(NC(CCN6CCC(C(=O)OCCCP(=O)(O)O)CC6)CSc6ccccc6)c(S(=O)(=O)C(F)(F)F)c5)cc4)CC3)c2)c(-c2ccc(Cl)cc2)n1C(C)C	70.2
CNC(C)C(=O)NC1CN(S(=O)(=O)c2cccc(S(=O)(=O)N3CCC4CCC(C(=O)NC(c5ccccc5)c5ccccc5)N4C(=O)C(NC(=O)C(C)NC)C3)c2)CCC2CCC(C(=O)NC(c3ccccc3)c3ccccc3)N2C1=O (stereo not given) + Cc1c(S(C)(=O)=O)c(-c2cc(F)cc(N3CCN(c4ccc(NS(=O)(=O)c5ccc(NC(CCN6CCC(C(=O)OCCCP(=O)(O)O)CC6)CSc6ccccc6)c(S(=O)(=O)C(F)(F)F)c5)cc4)CC3)c2)c(-c2ccc(Cl)cc2)n1C(C)C	102
C=CC(=O)N1CCN(c2nc(=O)n(-c3c(C)ccnc3C(C)C)c3nc(-c4c(O)cccc4F)c(F)cc23)C(C)C1 (stereo not given) + CNC(C)C(=O)NC1CN(S(=O)(=O)c2cccc(S(=O)(=O)N3CCC4CCC(C(=O)NC(c5ccccc5)c5ccccc5)N4C(=O)C(NC(=O)C(C)NC)C3)c2)CCC2CCC(C(=O)NC(c3ccccc3)c3ccccc3)N2C1=O	103
Cn1ncnc1[C@H]1c2n[nH]c(=O)c3cc(F)cc(c23)N[C@@H]1c1ccc(F)cc1 + Cc1c(S(C)(=O)=O)c(-c2cc(F)cc(N3CCN(c4ccc(NS(=O)(=O)c5ccc(NC(CCN6CCC(C(=O)OCCCP(=O)(O)O)CC6)CSc6ccccc6)c(S(=O)(=O)C(F)(F)F)c5)cc4)CC3)c2)c(-c2ccc(Cl)cc2)n1C(C)C	27.9

Notebook: O=C(c1ccc(F)c(F)c1Nc1ccc(I)cc1F)N1CC(O)([C@@H]2CCCCN2)C1 + Cc1c(S(C)(=O)=O)c(-c2cc(F)cc(N3CCN(c4ccc(NS(=O)(=O)c5ccc(NC(CCN6CCC(C(=O)OCCCP(=O)(O)O)CC6)CSc6ccccc6)c(S(=O)(=O)C(F)(F)F)c5)cc4)CC3)c2)c(-c2ccc(Cl)cc2)n1C(C)C , viability, T/C read as 48.4
